metric.name: melting point (°C)

compound	melting point [°C]
CCc1cn2c(N)c(Cl)cc(C(=O)NCC3CCN(CCC(C)(C)C)CC3)c2n1 [Example 3]	234
COCC(C)(C)CN1CCC(CNC(=O)c2cc(Cl)c(N)n3cc(C)nc23)CC1 [Example 9]	199
COC(C)(C)CCN1CCC(CNC(=O)c2cc(Cl)c(N)n3cc(C)nc23)CC1 [Example 8]	199
COC(C)(C)CN1CCC(CNC(=O)c2cc(Cl)c(N)n3cc(C)nc23)CC1 [Example 5]	211
CCc1cn2c(N)c(Cl)cc(C(=O)NCC3CCN(CC(C)(C)OC)CC3)c2n1 [Example 4]	211

----------
# system: HERG potassium channel (Homo sapiens, UniProt Q12809)
# Sequence (Q12809 whole entry): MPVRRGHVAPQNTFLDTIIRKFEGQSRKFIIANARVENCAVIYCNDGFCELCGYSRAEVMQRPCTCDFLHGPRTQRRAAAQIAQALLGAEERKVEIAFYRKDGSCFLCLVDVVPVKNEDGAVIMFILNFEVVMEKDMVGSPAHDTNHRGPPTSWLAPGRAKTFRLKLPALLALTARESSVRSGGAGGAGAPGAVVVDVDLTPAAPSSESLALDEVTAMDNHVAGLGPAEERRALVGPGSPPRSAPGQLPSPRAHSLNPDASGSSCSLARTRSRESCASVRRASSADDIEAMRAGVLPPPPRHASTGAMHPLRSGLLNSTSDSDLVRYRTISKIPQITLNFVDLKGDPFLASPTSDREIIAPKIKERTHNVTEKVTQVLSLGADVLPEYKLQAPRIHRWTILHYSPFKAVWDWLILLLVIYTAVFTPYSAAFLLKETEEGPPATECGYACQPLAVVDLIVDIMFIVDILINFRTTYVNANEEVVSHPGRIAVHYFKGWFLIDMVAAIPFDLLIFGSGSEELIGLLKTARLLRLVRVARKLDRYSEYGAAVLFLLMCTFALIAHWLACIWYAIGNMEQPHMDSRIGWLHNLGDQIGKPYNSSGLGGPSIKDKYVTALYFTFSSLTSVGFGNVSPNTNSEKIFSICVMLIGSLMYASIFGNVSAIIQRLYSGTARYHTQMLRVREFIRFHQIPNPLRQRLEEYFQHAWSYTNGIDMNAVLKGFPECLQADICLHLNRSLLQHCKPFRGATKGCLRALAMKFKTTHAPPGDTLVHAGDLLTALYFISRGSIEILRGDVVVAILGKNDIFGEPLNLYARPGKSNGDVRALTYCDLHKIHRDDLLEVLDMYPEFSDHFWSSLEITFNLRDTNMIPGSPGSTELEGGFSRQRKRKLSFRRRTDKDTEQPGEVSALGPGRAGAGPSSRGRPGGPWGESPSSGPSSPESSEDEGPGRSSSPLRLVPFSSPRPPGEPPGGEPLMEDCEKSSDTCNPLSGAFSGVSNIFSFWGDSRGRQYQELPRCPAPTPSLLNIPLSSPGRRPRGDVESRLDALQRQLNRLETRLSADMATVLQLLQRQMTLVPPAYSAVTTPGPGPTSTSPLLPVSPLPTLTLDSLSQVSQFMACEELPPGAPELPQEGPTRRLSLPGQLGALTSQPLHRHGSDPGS
metric.name: pKi
pKi here: minus log base 10 of the concentration, concentration in moles per litre.

compound	metric.name	reported.result
COCCCN1CCC(CNC(=O)c2cc(Cl)c(N)n3cc(C)nc23)CC1 [Compound B, reference compound]	pKi	5.22

Query block: Which pKi is reported for this compound? CCc1cn2c(N)c(Cl)cc(C(=O)NCC3CCN(CC(C)(C)OC)CC3)c2n1 [Example 4]
Result block: 4.65
